- Assayed target: hH4R (Homo sapiens)
- Protocol: Radioligand competition binding with [3H]histamine, Sf9 cell membranes
- Condition info: hH4R pKi
Listed here are compounds together with their documented Ki.
Your answer should be a number followed by the unit of measure.

Known Ki results, listed for orientation:
Test smiles: N=C(NCCCCCCCCNC(=N)NCCCc1cnc(N)s1)NCCCc1cnc(N)s1
Assayed target: hH4R (Homo sapiens)
Measurement type: Ki
Assay result: 52.5 µM
--
Test smiles: CCCCCNC(=N)NCCCc1c[nH]cn1
Assayed target: hH4R (Homo sapiens)
Measurement type: Ki
Assay result: 0.00676 µM
--
Test smiles: CCCCCCCCCCCCNC(=N)NCCCc1c[nH]cn1
Assayed target: hH4R (Homo sapiens)
Measurement type: Ki
Assay result: 0.0126 µM
--
Test smiles: N=C(NCCCCNC(=N)NCCCc1c[nH]cn1)NCCCc1c[nH]cn1
Assayed target: hH4R (Homo sapiens)
Measurement type: Ki
Assay result: 0.661 µM
--
Test smiles: c1nc(CCCNC2=NCCCN2)c[nH]1
Assayed target: hH4R (Homo sapiens)
Measurement type: Ki
Assay result: 0.038 µM
--
Test smiles: CC(C)(C)NC(=N)NCCCc1c[nH]cn1
Assayed target: hH4R (Homo sapiens)
Measurement type: Ki
Assay result: 0.219 µM
--
Test smiles: CCCCCCCCCCNC(=N)NCCCc1c[nH]cn1
Assayed target: hH4R (Homo sapiens)
Measurement type: Ki
Assay result: 0.0977 µM
--
Test smiles: N=C(NCCCCCCNC(=N)NCCCc1c[nH]cn1)NCCCc1c[nH]cn1
Assayed target: hH4R (Homo sapiens)
Measurement type: Ki
Assay result: 0.427 µM
--
Test smiles: CCNC(=N)NCCCc1c[nH]cn1
Assayed target: hH4R (Homo sapiens)
Measurement type: Ki
Assay result: 0.0135 µM
--
Test smiles: Cc1nc(N)sc1CCCNC(=N)NCCCCCCCCNC(=N)NCCCc1c[nH]cn1
Assayed target: hH4R (Homo sapiens)
Measurement type: Ki
Assay result: 0.0741 µM

Please indicate Ki recorded for CCCCCCCCNC(=N)NCCCc1c[nH]cn1 0.126 µM

Please indicate Ki recorded for CC(C)CCNC(=N)NCCCc1c[nH]cn1 0.0251 µM

Please indicate Ki recorded for CCCCCCCCCCCCNC(=N)NCCCc1sc(N)nc1C 5.62 µM

Please indicate Ki recorded for CC(C)NC(=N)NCCCc1c[nH]cn1 0.038 µM

Please indicate Ki recorded for Cc1nc(N)sc1CCCNC(=N)NCCCCCCCCNC(=N)NCCCc1cnc(N)s1 7.24 µM

Please indicate Ki recorded for N=C(NCCCCCCCCNC(=N)NCCCn1ccnc1)NCCCn1ccnc1 33.9 µM

Please indicate Ki recorded for CCCCNC(=N)NCCCc1c[nH]cn1 0.00912 µM

Please indicate Ki recorded for N=C(NCCCCCCCCNC(=N)NCCCc1c[nH]cn1)NCCCc1c[nH]cn1 0.0871 µM

Please indicate Ki recorded for CNC(=N)NCCCc1c[nH]cn1 0.0263 µM

Please indicate Ki recorded for N=C(NCCCCCCCCNC(=N)NCCCc1cnc(N)s1)NCCCc1c[nH]cn1 0.107 µM

Please indicate Ki recorded for N=C(NCCCCCCCCCCNC(=N)NCCCc1c[nH]cn1)NCCCc1c[nH]cn1 0.0209 µM

Please indicate Ki recorded for N=C(NCCCNC(=N)NCCCc1c[nH]cn1)NCCCc1c[nH]cn1 0.2 µM

Please indicate Ki recorded for CCCCCCCCCCCCNC(=N)NCCCc1cnc(N)s1 11.2 µM

Please indicate Ki recorded for N=C(NCCCCCCCCCCCCNC(=N)NCCCc1c[nH]cn1)NCCCc1c[nH]cn1 0.02 µM

Please indicate Ki recorded for CC(C)CNC(=N)NCCCc1c[nH]cn1 0.0178 µM

Please indicate Ki recorded for CCCCCCCCCCCCNC(=N)NCCCn1ccnc1 12.9 µM

* * *

- Assayed target: hH3R (Homo sapiens, UniProt Q9Y5N1)
- Sequence (Q9Y5N1 whole entry): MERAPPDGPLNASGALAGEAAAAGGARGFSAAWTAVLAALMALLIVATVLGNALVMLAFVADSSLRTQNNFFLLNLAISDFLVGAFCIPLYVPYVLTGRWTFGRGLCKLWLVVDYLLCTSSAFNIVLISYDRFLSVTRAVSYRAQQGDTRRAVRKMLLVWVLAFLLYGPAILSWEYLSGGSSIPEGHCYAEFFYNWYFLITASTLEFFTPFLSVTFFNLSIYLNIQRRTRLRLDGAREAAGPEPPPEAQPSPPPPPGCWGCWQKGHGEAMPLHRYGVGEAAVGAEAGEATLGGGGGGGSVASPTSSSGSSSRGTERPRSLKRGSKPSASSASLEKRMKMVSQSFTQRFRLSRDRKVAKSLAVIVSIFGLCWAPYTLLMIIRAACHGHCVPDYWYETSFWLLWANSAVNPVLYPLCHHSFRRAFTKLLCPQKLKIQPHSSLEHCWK
- Protocol: Radioligand competition binding with [3H]Nα-methylhistamine, Sf9 cell membranes
- Condition info: Ki hH3R, bound stated
Listed here are compounds together with their documented Ki.

Known Ki results, listed for orientation:
Test smiles: CCCNC(=N)NCCCc1c[nH]cn1
Assayed target: hH3R (Homo sapiens, UniProt Q9Y5N1)
Ki: < 100 nM
--
Test smiles: N=C(NCCCCCCCCNC(=N)NCCCc1c[nH]cn1)NCCCc1c[nH]cn1
Assayed target: hH3R (Homo sapiens, UniProt Q9Y5N1)
Ki: < 100 nM

Could you now consider this next compound?
Tell me Ki of Cc1nc(N)sc1CCCNC(=N)NCCCCCCCCNC(=N)NCCCc1sc(N)nc1C when tested on hH3R (Homo sapiens, UniProt Q9Y5N1). > 1000 nM

* * *

- Assayed target: hH2R (Homo sapiens)
- Sequence (P25021 whole entry): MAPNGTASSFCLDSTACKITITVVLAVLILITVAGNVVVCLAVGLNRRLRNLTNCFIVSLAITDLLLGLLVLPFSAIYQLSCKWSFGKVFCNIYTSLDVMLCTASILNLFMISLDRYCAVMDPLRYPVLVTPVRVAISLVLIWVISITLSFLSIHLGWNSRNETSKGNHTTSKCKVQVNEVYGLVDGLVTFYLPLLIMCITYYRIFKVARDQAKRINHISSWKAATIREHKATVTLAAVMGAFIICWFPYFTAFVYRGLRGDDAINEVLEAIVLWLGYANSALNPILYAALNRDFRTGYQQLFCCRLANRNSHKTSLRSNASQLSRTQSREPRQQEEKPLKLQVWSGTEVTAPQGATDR
- Sequence (P63092 1-380 isoform P63092-2 partner): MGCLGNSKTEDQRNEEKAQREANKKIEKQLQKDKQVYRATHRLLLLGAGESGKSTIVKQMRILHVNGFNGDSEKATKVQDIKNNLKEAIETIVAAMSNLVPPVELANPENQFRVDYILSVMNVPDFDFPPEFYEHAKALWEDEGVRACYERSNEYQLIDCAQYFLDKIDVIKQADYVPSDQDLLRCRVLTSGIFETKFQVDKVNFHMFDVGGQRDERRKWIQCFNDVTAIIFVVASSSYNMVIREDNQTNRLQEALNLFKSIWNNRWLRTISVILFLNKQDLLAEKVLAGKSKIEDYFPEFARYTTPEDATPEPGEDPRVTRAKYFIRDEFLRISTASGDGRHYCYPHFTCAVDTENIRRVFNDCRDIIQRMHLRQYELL
- Assay type: binding
- Condition info: Ki hH2R, bound stated
Measurement type: Ki

Tell me Ki of N=C(NCCCCCCCCNC(=N)NCCCc1c[nH]cn1)NCCCc1c[nH]cn1 when tested on hH2R (Homo sapiens). < 100 nM

Tell me Ki of Cc1nc(N)sc1CCCNC(=N)NCCCCCCCCNC(=N)NCCCc1sc(N)nc1C when tested on hH2R (Homo sapiens). < 100 nM

Tell me Ki of CCCNC(=N)NCCCc1c[nH]cn1 when tested on hH2R (Homo sapiens). > 1000 nM

* * *

Listed here are compounds together with their documented pKi.
- Assayed target: hH4R (Homo sapiens, UniProt Q9H3N8)
- Sequence (Q9H3N8 whole entry): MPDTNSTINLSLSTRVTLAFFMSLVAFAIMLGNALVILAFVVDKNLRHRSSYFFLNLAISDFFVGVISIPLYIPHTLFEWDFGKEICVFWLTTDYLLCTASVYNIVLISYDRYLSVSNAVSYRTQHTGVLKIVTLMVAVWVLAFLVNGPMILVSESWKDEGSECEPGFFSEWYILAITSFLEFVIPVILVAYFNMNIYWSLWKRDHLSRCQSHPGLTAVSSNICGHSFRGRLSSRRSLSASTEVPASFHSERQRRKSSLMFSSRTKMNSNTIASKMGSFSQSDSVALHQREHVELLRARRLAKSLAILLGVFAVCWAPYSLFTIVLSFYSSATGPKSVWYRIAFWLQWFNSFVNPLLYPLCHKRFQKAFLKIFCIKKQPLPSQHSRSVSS
- Protocol: Radioligand competition binding with [3H]histamine, Sf9 cell membranes
- Condition info: Ki hH4R, bound stated
pKi: −log10 of the molar value.

Known pKi results, listed for orientation:
Test smiles: Cc1nc(N)sc1CCCNC(=N)NCCCCCCCCNC(=N)NCCCc1sc(N)nc1C
Assayed target: hH4R (Homo sapiens, UniProt Q9H3N8)
Assay result: < 6.00

Test smiles: CCCNC(=N)NCCCc1c[nH]cn1
Assayed target: hH4R (Homo sapiens, UniProt Q9H3N8)
Assay result: > 7.00

Could you now consider this next compound?
Please indicate pKi recorded for N=C(NCCCCCCCCNC(=N)NCCCc1c[nH]cn1)NCCCc1c[nH]cn1 > 7.00

* * *

- Assayed target: hH2R (Homo sapiens)
- Format: binding
- Condition info: hH2R pKi, [3H]tiotidine (Kd […], c = 10 nM); mean ± SEM
pKi: −log10 of the molar value.
Mark condition met for reported pKi of 6 or greater; mark condition not met for anything smaller.

Reference set (10 entries):
Test smiles: N=C(NCCCCCCCCNC(=N)NCCCc1c[nH]cn1)NCCCc1c[nH]cn1
Answer label: condition met
--
Test smiles: CCCCCCCCCCCCNC(=N)NCCCc1c[nH]cn1
Answer label: condition met
--
Test smiles: Cc1nc(N)sc1CCCNC(=N)NCCCCCCCCNC(=N)NCCCc1sc(N)nc1C
Answer label: condition met
--
Test smiles: N=C(NCCCCCCCCCCCCNC(=N)NCCCc1c[nH]cn1)NCCCc1c[nH]cn1
Answer label: condition met
--
Test smiles: N=C(NCCCNC(=N)NCCCc1c[nH]cn1)NCCCc1c[nH]cn1
Answer label: condition met
--
Test smiles: N=C(NCCCCCCCCNC(=N)NCCCc1cnc(N)s1)NCCCc1c[nH]cn1
Answer label: condition met
--
Test smiles: c1nc(CCCNC2=NCCCN2)c[nH]1
Answer label: condition not met
--
Test smiles: CCCCCCCCCCCCNC(=N)NCCCc1sc(N)nc1C
Answer label: condition met
--
Test smiles: CC(C)(C)NC(=N)NCCCc1c[nH]cn1
Answer label: condition not met
--
Test smiles: CC(C)NC(=N)NCCCc1c[nH]cn1
Answer label: condition not met

# bool: pKi of N=C(NCCCCNC(=N)NCCCc1c[nH]cn1)NCCCc1c[nH]cn1 >= 6 condition met

# bool: pKi of CCNC(=N)NCCCc1c[nH]cn1 >= 6 condition not met

# bool: pKi of CCCCCCCCCCCCNC(=N)NCCCc1cnc(N)s1 >= 6 condition met

# bool: pKi of CCCCCCCCNC(=N)NCCCc1c[nH]cn1 >= 6 condition met

# bool: pKi of Cc1nc(N)sc1CCCNC(=N)NCCCCCCCCNC(=N)NCCCc1c[nH]cn1 >= 6 condition met

* * *

- Assayed target: hH3R (Homo sapiens, UniProt Q9Y5N1)
- Protocol: Radioligand competition binding with [3H]Nα-methylhistamine, Sf9 cell membranes
- Condition info: hH3R pKi, [3H]Nα-methylhistamine (Kd 8.6 nM, c = 3 nM); mean ± SEM
Listed here are compounds together with their documented pKi.
# pKi = -log10(concentration in molar units)

Test smiles: N=C(NCCCCCCCCNC(=N)NCCCc1cnc(N)s1)NCCCc1c[nH]cn1
pKi: 7.43
--
Test smiles: N=C(NCCCCCCCCNC(=N)NCCCn1ccnc1)NCCCn1ccnc1
pKi: 5.56
--
Test smiles: N=C(NCCCCCCCCNC(=N)NCCCc1c[nH]cn1)NCCCc1c[nH]cn1
pKi: 7.52
--
Test smiles: CC(C)(C)NC(=N)NCCCc1c[nH]cn1
pKi: 6.43
--
Test smiles: N=C(NCCCCNC(=N)NCCCc1c[nH]cn1)NCCCc1c[nH]cn1
pKi: 6.84
--
Test smiles: N=C(NCCCCCCCCNC(=N)NCCCc1cnc(N)s1)NCCCc1cnc(N)s1
pKi: 4.96
--
Test smiles: CCCCNC(=N)NCCCc1c[nH]cn1
pKi: 7.21
--
Test smiles: CCNC(=N)NCCCc1c[nH]cn1
pKi: 7.03
--
Test smiles: CNC(=N)NCCCc1c[nH]cn1
pKi: 6.81

Could you now consider this next compound?
Please indicate pKi recorded for N=C(NCCCCCCCCCCCCNC(=N)NCCCc1c[nH]cn1)NCCCc1c[nH]cn1 7.79
